PROCEDURE_TEXT: Oral bioavailability in Sprague-Dawley rat at 5 mg/kg by LC-MS/MS method
Assay type: ADME, organism-based
MEASUREMENT_CONDITIONS: in vivo
MEASURED_ATTRIBUTE: bioavailability (%)
Numeric answer only, unit % assumed.

Enquiry: Need bioavailability, item `CS(=O)(=O)O.Cc1cc(Nc2ncc(Cl)c(Nc3cn(C)nc3S(=O)(=O)C(C)C)n2)c(OC(C)C)cc1C1CCN(C)CC1`
Return: 63.2

* * *

PROCEDURE_TEXT: Clearance in Sprague-Dawley rat at 1 mg/kg, iv by LC-MS/MS method
Format: ADME, organism-based
MEASUREMENT_CONDITIONS: in vivo
MEASURED_ATTRIBUTE: clearance (mL/min/kg)
Numeric answer only, unit mL/min/kg assumed.

Enquiry: Need clearance, item `CS(=O)(=O)O.Cc1cc(Nc2ncc(Cl)c(Nc3cn(C)nc3S(=O)(=O)C(C)C)n2)c(OC(C)C)cc1C1CCN(C)CC1`
Return: 16.9

All figures here come from ChEMBL document CHEMBL3603807.
